Target: T1, HLA-A*02:01 (human)
T1 construct: MHC class I monomer made peptide-receptive by UV cleavage of a UV-sensitive ligand; also called peptide-receptive MHC molecules
Assay: UV-ligand exchange ELISA (anti-β2m), peptide exchange yield grade
Below, each of the binders is paired with its reported peptide exchange yield value.

Recorded results for 3 binders are shown here.
1. RLADLEALKV [peptide RLADLEALKV (SEQ ID NO: 150)]    50 to 75%
2. RMYNKIFAI [peptide RMYNKIFAI (SEQ ID NO: 10)]    50 to 75%
3. ALLQGAIESV [peptide ALLQGAIESV (SEQ ID NO: 177)]    50 to 75%

Shift focus to the following entry.
Tell me its peptide exchange yield given VLYTGVVRV [peptide VLYTGWRV (SEQ ID NO: 185)] as the entry. 50 to 75%
